I'd be grateful if you could share measured Relative activity (%) for these entries.
TEST_SYSTEM: aminopeptidase of L. lactis subsp. cremoris Wg2 (Lactococcus lactis subsp. cremoris)
Sequence (P0C2T8 1-846): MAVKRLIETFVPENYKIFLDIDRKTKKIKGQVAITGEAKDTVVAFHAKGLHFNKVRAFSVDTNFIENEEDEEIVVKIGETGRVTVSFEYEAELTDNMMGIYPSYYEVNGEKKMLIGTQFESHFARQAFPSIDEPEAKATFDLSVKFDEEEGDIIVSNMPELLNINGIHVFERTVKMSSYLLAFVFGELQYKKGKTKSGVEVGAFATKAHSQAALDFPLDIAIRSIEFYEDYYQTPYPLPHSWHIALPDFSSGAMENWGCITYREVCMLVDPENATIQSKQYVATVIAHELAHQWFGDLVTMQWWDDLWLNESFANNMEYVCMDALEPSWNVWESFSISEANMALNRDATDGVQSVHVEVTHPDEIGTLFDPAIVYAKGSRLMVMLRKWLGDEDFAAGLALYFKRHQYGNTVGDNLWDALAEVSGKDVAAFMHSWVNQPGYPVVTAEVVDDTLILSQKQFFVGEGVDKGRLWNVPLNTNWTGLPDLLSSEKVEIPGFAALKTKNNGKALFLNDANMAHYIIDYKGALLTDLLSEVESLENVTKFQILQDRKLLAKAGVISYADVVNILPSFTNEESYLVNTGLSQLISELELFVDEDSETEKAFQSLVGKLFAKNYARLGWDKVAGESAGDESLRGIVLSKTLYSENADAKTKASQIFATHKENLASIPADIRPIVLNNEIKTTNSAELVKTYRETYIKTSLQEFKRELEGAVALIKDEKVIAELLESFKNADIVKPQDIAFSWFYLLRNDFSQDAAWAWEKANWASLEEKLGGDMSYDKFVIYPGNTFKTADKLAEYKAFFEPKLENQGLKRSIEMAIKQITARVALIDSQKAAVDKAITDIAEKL
TEST_DETAILS: Hydrolysis of lysyl-p-nitroanilide / X-p-nitroanilide substrates (release of p-nitroanilide at 410 nm)
CONDITION_NOTES: relative hydrolysis velocity of X-p-nitroanilide substrates
Expressed in %, but write only the number.

Any idea what Relative activity (%) was measured for NCCCCC(N)C(=O)Nc1ccc([N+](=O)[O-])cc1 (centres unmarked) [Lys-pNA, lysyl-p-nitroanilide] ? 100

Another compound to look at: CC(N)C(=O)Nc1ccc([N+](=O)[O-])cc1 (centres unmarked) [Ala-pNA] 4

Another compound to look at: CSCCC(N)C(=O)Nc1ccc([N+](=O)[O-])cc1 (centres unmarked) [Met-pNA, methionyl-p-nitroanilide] 8

Another compound to look at: CC(C)CC(N)C(=O)Nc1ccc([N+](=O)[O-])cc1 (centres unmarked) [Leu-pNA, leucyl-p-nitroanilide] 24

Another compound to look at: NC(Cc1ccccc1)C(=O)Nc1ccc([N+](=O)[O-])cc1 (centres unmarked) [Phe-pNA] 4

* * *

TEST_SYSTEM: UniProt:P0C2T8
Sequence (P0C2T8 1-846): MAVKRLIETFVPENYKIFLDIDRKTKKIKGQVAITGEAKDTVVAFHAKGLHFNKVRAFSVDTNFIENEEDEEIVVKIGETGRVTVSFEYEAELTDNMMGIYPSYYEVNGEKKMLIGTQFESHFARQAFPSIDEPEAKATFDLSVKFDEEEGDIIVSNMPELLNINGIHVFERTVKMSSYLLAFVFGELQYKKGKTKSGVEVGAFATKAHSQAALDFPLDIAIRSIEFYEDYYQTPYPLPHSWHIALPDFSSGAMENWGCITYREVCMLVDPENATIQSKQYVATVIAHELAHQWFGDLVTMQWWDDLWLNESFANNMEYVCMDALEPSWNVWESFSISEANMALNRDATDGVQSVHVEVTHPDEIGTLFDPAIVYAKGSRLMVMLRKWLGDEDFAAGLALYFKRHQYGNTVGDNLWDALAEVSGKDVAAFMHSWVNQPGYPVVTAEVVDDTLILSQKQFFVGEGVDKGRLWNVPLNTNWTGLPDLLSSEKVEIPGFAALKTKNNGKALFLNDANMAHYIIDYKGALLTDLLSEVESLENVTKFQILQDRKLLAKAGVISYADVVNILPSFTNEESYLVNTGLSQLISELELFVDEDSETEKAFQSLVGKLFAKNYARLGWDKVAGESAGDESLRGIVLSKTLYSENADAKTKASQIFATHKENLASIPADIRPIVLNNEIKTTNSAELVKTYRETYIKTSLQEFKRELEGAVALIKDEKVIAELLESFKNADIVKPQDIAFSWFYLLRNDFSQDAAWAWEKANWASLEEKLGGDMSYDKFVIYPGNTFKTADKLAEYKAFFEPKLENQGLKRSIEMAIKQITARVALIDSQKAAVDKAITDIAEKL
TEST_DETAILS: Hydrolysis of lysyl-p-nitroanilide / X-p-nitroanilide substrates (release of p-nitroanilide at 410 nm)
CONDITION_NOTES: relative hydrolysis velocity of X-p-nitroanilide substrates
READOUT_TYPE: Relative activity (%)

Any idea what Relative activity (%) was measured for NCC(=O)Nc1ccc([N+](=O)[O-])cc1 ? < 1%

Another compound to look at: O=C(Nc1ccc([N+](=O)[O-])cc1)C1CCCN1 (stereo not drawn) < 1%

Another compound to look at: N[C@@H](CCC(=O)O)C(=O)Nc1ccc([N+](=O)[O-])cc1 < 1%
